- System tested: Dual specificity tyrosine-phosphorylation-regulated kinase 1A (Homo sapiens, UniProt Q13627)
For each of the compounds below, state its pIC50.
# pIC50 = -log10(concentration in molar units)

Request: Returns the measured pIC50 for the input compound. Input: COc1ccc2c3ccnc(C)c3n(CCN(C)C)c2c1.O=C(O)/C=C/C(=O)O
Response: 6.68

Request: Next compound: COc1ccc2c(c1)N(CCN(C)C)/C(=C/C(C)=O)S2
Response: 6.25
